tested on: Mus musculus; assay: Analgesic activity in Mus musculus Swiss albino (mouse) assessed as protection against acetic acid-induced writhing at 100 mg/kg, po administered 1 hr prior challenge measured after 5 min of challenge for 20 min; type: functional
measured.parameter: Activity (%)
Give the number; % is assumed, so skip it.

The following compounds have reported results that may help.
1. Brc1ccc(C2=NN(c3ccccc3)C(c3ccc(Br)cc3)C2)cc1 (stereo not drawn) :: 53.75
2. COc1ccc(C2=NN(c3ccccc3)C(c3ccc(OC)cc3)C2)cc1 (stereo not drawn) :: 58.74
3. CC(=O)Oc1ccccc1C(=O)O :: 58.25

Turning now to a further compound:
Reported Activity ( Cc1ccc(C2=NN(c3ccccc3)C(c3ccc(C)cc3)C2)cc1 (stereo not drawn) ) = 58.16

---

system: Bacillus subtilis; assay: Antimicrobial activity against Bacillus subtilis at 40 ug/ml after 24 hr by agar well diffusion method; format: functional; conditions: read-out: IZ
Overview of reported zone of inhibition at 40 µg/mL across a group of compounds:
Give the number; mm is assumed, so skip it.

The following compounds have reported results that may help.
1. Brc1ccc(C2=NN(c3ccccc3)C(c3ccc(Br)cc3)C2)cc1 (stereo not drawn) :: 23
2. Clc1ccc(C2=NN(c3ccccc3)C(c3ccc(Cl)cc3)C2)cc1 (stereo not drawn) :: 22
3. O=C(O)c1cn(C2CC2)c2cc(N3CCNCC3)c(F)cc2c1=O :: 24
4. c1ccc(-c2ccc(C3=NN(c4ccccc4)C(c4ccc(-c5ccccc5)cc4)C3)cc2)cc1 (stereo not drawn) :: 23

Reported zone of inhibition at 40 µg/mL ( COc1ccc(C2=NN(c3ccccc3)C(c3ccc(OC)cc3)C2)cc1 (stereo not drawn) ) = 21

Reported zone of inhibition at 40 µg/mL ( Cc1ccc(C2=NN(c3ccccc3)C(c3ccc(C)cc3)C2)cc1 (stereo not drawn) ) = 20

Reported zone of inhibition at 40 µg/mL ( Fc1ccc(C2=NN(c3ccccc3)C(c3ccc(F)cc3)C2)cc1 (stereo not drawn) ) = 21

Reported zone of inhibition at 40 µg/mL ( c1ccc(C2=NN(c3ccccc3)C(c3ccccc3)C2)cc1 (stereo not drawn) ) = 23

---

system: Klebsiella pneumoniae; assay: Antimicrobial activity against Klebsiella pneumoniae after 24 hr by micro dilution method; format: functional
measured.parameter: MIC (µg/mL)
Give the number; µg/mL is assumed, so skip it.

The following compounds have reported results that may help.
1) COc1ccc(C2=NN(c3ccccc3)C(c3ccc(OC)cc3)C2)cc1 (configuration not stated) :: 30
2) Cc1ccc(C2=NN(c3ccccc3)C(c3ccc(C)cc3)C2)cc1 (configuration not stated) :: 30
3) c1ccc(-c2ccc(C3=NN(c4ccccc4)C(c4ccc(-c5ccccc5)cc4)C3)cc2)cc1 (configuration not stated) :: 30

The observed MIC for Fc1ccc(C2=NN(c3ccccc3)C(c3ccc(F)cc3)C2)cc1 (configuration not stated) when tested with Klebsiella pneumoniae stands at 30

The observed MIC for c1ccc(C2=NN(c3ccccc3)C(c3ccccc3)C2)cc1 (configuration not stated) when tested with Klebsiella pneumoniae stands at 40

The observed MIC for Brc1ccc(C2=NN(c3ccccc3)C(c3ccc(Br)cc3)C2)cc1 (configuration not stated) when tested with Klebsiella pneumoniae stands at 40

The observed MIC for Clc1ccc(C2=NN(c3ccccc3)C(c3ccc(Cl)cc3)C2)cc1 (configuration not stated) when tested with Klebsiella pneumoniae stands at 30
